Tested on: SR
Test: Anticancer activity against human SR cells after 48 hrs
Format: functional
Measured LC50 (concentration killing 50% of initial cells), listed per entry for reference.
Measured endpoint: LC50 (concentration killing 50% of initial cells)

{"columns": ["Compound", "Data value"],
 "data": [
  ["Cc1cc(O)c(C2=NN(c3ccc(S(N)(=O)=O)cc3)C(c3ccccc3O)C2)cc1Cl (centres undefined)", "> 100 µM"],
  ["Cc1cc(O)c(C2=NN(c3ccc(S(N)(=O)=O)cc3)C(/C=C/c3ccccc3)C2)cc1Cl (centres undefined)", "89.7 µM"],
  ["Cc1cc(O)c(C2=NN(c3ccc(S(N)(=O)=O)cc3)C(c3ccccc3Cl)C2)cc1Cl (centres undefined)", "> 100 µM"],
  ["COc1ccc(C2CC(c3cc(Cl)c(C)cc3O)=NN2c2ccc(S(N)(=O)=O)cc2)cc1OC (centres undefined)", "> 100 µM"]
]}

###

Tested on: SNB-19
Assay: Anticancer activity against human SNB19 cells after 48 hrs
Type: functional
Conditions: SNB-19, 48 h, read-out: LC50 (the source's name)
Measured endpoint: CC50 (µM)

{"columns": ["Molecule", "Measured on", "Qualifier", "Data value"],
 "data": [
  ["Cc1cc(O)c(C2=NN(c3ccc(S(N)(=O)=O)cc3)C(c3ccccc3Cl)C2)cc1Cl (centres undefined)", "SNB-19", "=", 92.3],
  ["Cc1cc(O)c(C2=NN(c3ccc(S(N)(=O)=O)cc3)C(/C=C/c3ccccc3)C2)cc1Cl (centres undefined)", "SNB-19", "=", 44.7],
  ["Cc1cc(O)c(C2=NN(c3ccc(S(N)(=O)=O)cc3)C(c3ccccc3O)C2)cc1Cl (centres undefined)", "SNB-19", "=", 39.8],
  ["COc1ccc(C2CC(c3cc(Cl)c(C)cc3O)=NN2c2ccc(S(N)(=O)=O)cc2)cc1OC (centres undefined)", "SNB-19", ">", 100]
]}

###

The following compounds are listed with their measured GI50 values.
Tested on: Malme-3M
Assay: Anticancer activity against human MALME-3M cells after 48 hrs
Assay type: functional
Measured endpoint: GI50

{"columns": ["Compound", "Data value"],
 "data": [
  ["Cc1cc(O)c(C2=NN(c3ccc(S(N)(=O)=O)cc3)C(c3ccccc3Cl)C2)cc1Cl (centres undefined)", "2620 nM"],
  ["COc1ccc(C2CC(c3cc(Cl)c(C)cc3O)=NN2c2ccc(S(N)(=O)=O)cc2)cc1OC (centres undefined)", "3650 nM"],
  ["Cc1cc(O)c(C2=NN(c3ccc(S(N)(=O)=O)cc3)C(/C=C/c3ccccc3)C2)cc1Cl (centres undefined)", "3010 nM"],
  ["Cc1cc(O)c(C2=NN(c3ccc(S(N)(=O)=O)cc3)C(c3ccccc3O)C2)cc1Cl (centres undefined)", "2720 nM"]
]}

###

GI50: recorded values
Test system: NCI-H23
Experiment: Anticancer activity against human NCI-H23 cells after 48 hrs
Type: functional
Conditions: NCI-H23, 48 h

{"columns": ["Compound", "Units label", "GI50"],
 "data": [
  ["Cc1cc(O)c(C2=NN(c3ccc(S(N)(=O)=O)cc3)C(c3ccccc3O)C2)cc1Cl (centres undefined)", "nM", 2090],
  ["Cc1cc(O)c(C2=NN(c3ccc(S(N)(=O)=O)cc3)C(c3ccccc3Cl)C2)cc1Cl (centres undefined)", "nM", 1790],
  ["COc1ccc(C2CC(c3cc(Cl)c(C)cc3O)=NN2c2ccc(S(N)(=O)=O)cc2)cc1OC (centres undefined)", "nM", 3110],
  ["Cc1cc(O)c(C2=NN(c3ccc(S(N)(=O)=O)cc3)C(/C=C/c3ccccc3)C2)cc1Cl (centres undefined)", "nM", 1680]
]}

These measurements were taken from ChEMBL document CHEMBL1914430.
